Values compiled from the supplement of paper PMC7877785.

Experiment: self-splicing fitness, log relative to wild type (ln ratio); higher = more splicing; Tetrahymena group I intron in knt gene, E. coli kanamycin selection, DiMSum; sequences stand for … in CUCUCU…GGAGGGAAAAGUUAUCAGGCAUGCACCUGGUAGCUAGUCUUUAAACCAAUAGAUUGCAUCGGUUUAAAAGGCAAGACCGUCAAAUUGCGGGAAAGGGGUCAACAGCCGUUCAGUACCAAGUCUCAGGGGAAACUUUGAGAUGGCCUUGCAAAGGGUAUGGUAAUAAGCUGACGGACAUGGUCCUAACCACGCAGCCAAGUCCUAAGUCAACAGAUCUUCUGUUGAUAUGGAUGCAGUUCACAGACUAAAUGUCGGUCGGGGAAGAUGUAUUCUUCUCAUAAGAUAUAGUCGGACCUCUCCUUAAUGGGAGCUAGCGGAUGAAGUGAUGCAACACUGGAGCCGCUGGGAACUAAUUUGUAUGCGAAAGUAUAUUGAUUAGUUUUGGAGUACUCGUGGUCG;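 note: selection with 25 µg/mL kanamycin versus none on LB agar overnight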
Details: 30 °C
Listed here are sequences together with their documented self-splicing fitness (ln).
PARAMETER: self-splicing fitness (ln)

SEQUENCE TEXT	NUMERIC VALUE
GUUCAGCAAUAUUACGGCAU	-0.334
UGCGAGCAAUAUUACGACCU	-0.697
CCUAAGCAAUAUUACGCUUC	-3.16
AAAGAGCAAUAUUACGGCCA	-3.01
GAUCAGCAAUAUUACGUAGG	-1.87
GUAGAGCAAUAUUACGUUUU	-2.47
GAGAAGCAAUAUUACGAAUC	-3.91
CGAGAGCAAUAUUACGCAUG	-2.98
UCGUAGCAAUAUUACGUGAC	-1.99
ACGAAGCAAUAUUACGUGCA	-0.772
ACCAAGCAAUAUUACGAGUU	-4.23
AACCAGCAAUAUUACGCGGC	-3.79
UUCCAGCAAUAUUACGCGUU	-2.35
AUAUAGCAAUAUUACGAAGC	-2.96
UGUUAGCAAUAUUACGGCCG	0.71
CUGUAGCAAUAUUACGUCGC	-2.89
ACUCAGCAAUAUUACGAAGU	-3
GGCUAGCAAUAUUACGUCCU	-1.68
AAUGAGCAAUAUUACGUCCA	-2.41
AUGUAGCAAUAUUACGUCCU	-0.674
AGAUAGCAAUAUUACGACGG	-2.09

###

Experiment: self-splicing fitness, log relative to wild type (ln ratio); higher = more splicing; Tetrahymena group I intron in knt gene, E. coli kanamycin selection, DiMSum; sequences stand for … in CUCUCU…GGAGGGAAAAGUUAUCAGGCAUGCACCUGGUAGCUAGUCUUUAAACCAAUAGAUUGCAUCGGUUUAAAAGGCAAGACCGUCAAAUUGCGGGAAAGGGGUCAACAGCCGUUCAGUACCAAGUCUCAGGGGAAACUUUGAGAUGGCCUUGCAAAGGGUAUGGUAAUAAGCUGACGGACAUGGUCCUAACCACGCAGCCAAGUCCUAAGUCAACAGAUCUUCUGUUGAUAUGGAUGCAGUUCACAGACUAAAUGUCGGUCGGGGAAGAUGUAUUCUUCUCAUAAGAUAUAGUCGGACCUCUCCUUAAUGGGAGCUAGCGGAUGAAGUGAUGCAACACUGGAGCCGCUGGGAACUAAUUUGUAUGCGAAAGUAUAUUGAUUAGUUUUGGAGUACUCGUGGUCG
Conditions: 37 °C
Listed here are sequences together with their documented self-splicing fitness (ln).

SEQUENCE TEXT	self-splicing fitness (ln)
AUCUAGCAAUAUUACGGGCG	-0.967
ACUAAGCAAUAUUACGCAAG	-1.49
AGUGAGCAAUAUUACGGCAG	-1.43
UAGCAGCAAUAUUACGAGCC	-1.9

###

Assay: self-splicing fitness, log relative to wild type (ln ratio); higher = more splicing; Tetrahymena group I intron in knt gene, E. coli kanamycin selection, DiMSum; sequences stand for … in CUCUCU…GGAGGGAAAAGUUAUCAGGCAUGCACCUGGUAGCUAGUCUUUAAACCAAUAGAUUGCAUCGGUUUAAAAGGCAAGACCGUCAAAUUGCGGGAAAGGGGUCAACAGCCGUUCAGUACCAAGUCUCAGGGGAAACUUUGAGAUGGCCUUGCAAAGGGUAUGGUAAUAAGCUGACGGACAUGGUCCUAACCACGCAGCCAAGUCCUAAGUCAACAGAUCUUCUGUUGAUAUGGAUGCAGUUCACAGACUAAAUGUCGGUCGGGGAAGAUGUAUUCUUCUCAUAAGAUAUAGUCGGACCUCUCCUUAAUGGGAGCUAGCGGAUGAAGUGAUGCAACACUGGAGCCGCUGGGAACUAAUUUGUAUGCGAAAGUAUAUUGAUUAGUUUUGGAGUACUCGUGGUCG
Conditions: 30 °C
Use -2 as the dividing line for self-splicing fitness (ln), with the line itself on the condition met side and lower values as condition not met.

SEQUENCE TEXT	ANSWER LABEL
UAAGAGCAAUAUUACGACAU	condition not met
AGUUAGCAAUAUUACGAACU	condition met
ACCAAGCAAUAUUACGGACA	condition met
UGCCAGCAAUAUUACGUUAU	condition not met
AACGAGCAAUAUUACGAUCA	condition not met
CGGCAGCAAUAUUACGGCAU	condition met
GGAUAGCAAUAUUACGUCUG	condition met
UAUGAGCAAUAUUACGUGGA	condition not met
GGCUAGCAAUAUUACGGCAC	condition met
UUAAAGCAAUAUUACGGAGG	condition met
GCGAAGCAAUAUUACGUCAG	condition not met
AUCGAGCAAUAUUACGGAGU	condition not met
ACGCAGCAAUAUUACGAUUG	condition not met
ACACAGCAAUAUUACGGCCA	condition met
GCUUAGCAAUAUUACGUUGG	condition met
UAGUAGCAAUAUUACGCUUU	condition not met
UUCCAGCAAUAUUACGAGUC	condition not met

###

Assay: self-splicing fitness, log relative to wild type (ln ratio); higher = more splicing; Tetrahymena group I intron in knt gene, E. coli kanamycin selection, DiMSum; sequences stand for … in CUCUCU…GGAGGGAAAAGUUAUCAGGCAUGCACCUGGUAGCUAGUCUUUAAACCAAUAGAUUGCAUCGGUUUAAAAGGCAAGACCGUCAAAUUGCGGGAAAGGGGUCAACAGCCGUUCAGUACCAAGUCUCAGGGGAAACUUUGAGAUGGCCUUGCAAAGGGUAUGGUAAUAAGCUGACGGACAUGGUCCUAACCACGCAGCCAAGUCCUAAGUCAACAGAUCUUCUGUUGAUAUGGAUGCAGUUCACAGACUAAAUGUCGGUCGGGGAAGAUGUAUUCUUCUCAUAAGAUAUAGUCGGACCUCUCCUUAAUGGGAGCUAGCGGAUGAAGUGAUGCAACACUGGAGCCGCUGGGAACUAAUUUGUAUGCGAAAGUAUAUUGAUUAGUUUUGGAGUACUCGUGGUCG
Conditions: 30 °C

SEQUENCE TEXT	self-splicing fitness (ln)
CGCUAGCAAUAUUACGAUAU	-3.98
AGCCAGCAAUAUUACGUUUC	-3.43
UAGUAGCAAUAUUACGGCUC	-1.01
AAGGAGCAAUAUUACGGCAG	-2.86
CCGUAGCAAUAUUACGUCGC	-3.45
CGAUAGCAAUAUUACGCCUU	-2.23

###

Test: self-splicing fitness, log relative to wild type (ln ratio); higher = more splicing; Tetrahymena group I intron in knt gene, E. coli kanamycin selection, DiMSum; sequences stand for … in CUCUCU…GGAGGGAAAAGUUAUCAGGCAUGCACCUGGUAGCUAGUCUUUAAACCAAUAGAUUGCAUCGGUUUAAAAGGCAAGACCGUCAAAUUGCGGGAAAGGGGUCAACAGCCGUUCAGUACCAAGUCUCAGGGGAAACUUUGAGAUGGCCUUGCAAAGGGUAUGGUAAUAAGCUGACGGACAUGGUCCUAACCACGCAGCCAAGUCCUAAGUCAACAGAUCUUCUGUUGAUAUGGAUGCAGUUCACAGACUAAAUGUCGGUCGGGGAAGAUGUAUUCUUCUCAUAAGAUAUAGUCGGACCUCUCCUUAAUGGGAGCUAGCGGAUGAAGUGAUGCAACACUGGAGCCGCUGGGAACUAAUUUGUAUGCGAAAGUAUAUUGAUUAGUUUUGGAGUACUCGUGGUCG
Settings: 37 °C
Use -0.6 as the dividing line for self-splicing fitness (ln), with the line itself on the class 1 side and lower values as class 0.

SEQUENCE TEXT	ANSWER LABEL
GGUAAGCAAUAUUACGGAAC	class 1
AUUUAGCAAUAUUACGAACA	class 1
UUGCAGCAAUAUUACGGUAG	class 1
CUUCAGCAAUAUUACGGUAC	class 0
AGACAGCAAUAUUACGGCAA	class 0
GAGAAGCAAUAUUACGUUGC	class 0
UCCUAGCAAUAUUACGAUGC	class 0
CUUCAGCAAUAUUACGACAC	class 0
CCUCAGCAAUAUUACGCCUA	class 0
AGUAAGCAAUAUUACGGAGU	class 0
UACCAGCAAUAUUACGGUCU	class 1
AGACAGCAAUAUUACGCGCG	class 1
CAAGAGCAAUAUUACGGCUA	class 0
AGGCAGCAAUAUUACGAGCA	class 1
GAUCAGCAAUAUUACGACUU	class 1
ACCUAGCAAUAUUACGCGCU	class 1
AAUAAGCAAUAUUACGGGAG	class 0
GCUAAGCAAUAUUACGGUGC	class 0
UGGUAGCAAUAUUACGUAAG	class 0
UCACAGCAAUAUUACGAAUU	class 0
CCGUAGCAAUAUUACGCUAG	class 0
GUUGAGCAAUAUUACGAGAU	class 0
UCCAAGCAAUAUUACGAGUA	class 1
UCGGAGCAAUAUUACGUCUG	class 0
